target: GLP-1 Receptor (Homo sapiens, UniProt P43220); assay: GLP-1R agonist cAMP stimulation assay (HEK293/GLP1R/CRE-LUC cells, HTRF cAMP dynamic 2 kit); details: HEK293/CRE-Luc cell line stably expressing the GLP-1 Receptor; 30 min incubation at 37° C.
Sequence (P43220 24-463): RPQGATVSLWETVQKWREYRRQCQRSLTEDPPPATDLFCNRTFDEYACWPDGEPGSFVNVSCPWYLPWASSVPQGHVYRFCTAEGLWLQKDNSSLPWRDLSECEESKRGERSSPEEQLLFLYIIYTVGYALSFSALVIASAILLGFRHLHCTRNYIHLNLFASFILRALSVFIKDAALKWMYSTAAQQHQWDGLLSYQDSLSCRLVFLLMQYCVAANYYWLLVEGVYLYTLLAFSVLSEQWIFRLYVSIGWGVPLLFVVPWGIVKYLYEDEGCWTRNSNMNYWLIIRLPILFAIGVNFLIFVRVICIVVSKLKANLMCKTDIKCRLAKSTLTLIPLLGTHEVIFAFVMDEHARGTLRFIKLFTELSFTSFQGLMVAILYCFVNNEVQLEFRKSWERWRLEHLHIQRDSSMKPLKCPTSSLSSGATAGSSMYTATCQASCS
parameter_measured: EC50

Consider the following illustrative entries.
* O=c1[nH]c(-c2cnc3c(c2)nc(CN2CCc4ccc(OCc5ccc(Cl)cc5F)nc4C2)n3C[C@@H]2CCO2)no1 | 1 to 300 nM
* Fc1cc(Cl)cc(F)c1CNc1nc2c(cc1C(F)(F)F)CCN(Cc1nc3cc(-c4nnc(C5CC5)[nH]4)ncc3n1C[C@@H]1CCO1)C2 | < 1 nM

The molecule listed as `O=c1[nH]c(-c2ccc3c(n2)nc(CN2CCc4cc(C(F)(F)F)c(OCc5ccc(Cl)cc5F)nc4C2)n3C[C@@H]2CCO2)no1` shows EC50 equal to < 1 nM

The molecule listed as `Fc1cc(Cl)ccc1COc1nc2c(cc1C(F)(F)F)CCN(Cc1nc3cc(-c4nnc(C(F)(F)F)[nH]4)cnc3n1C[C@@H]1CCO1)C2` shows EC50 equal to < 1 nM

====

target: GLP-1 Receptor (Homo sapiens, UniProt P43220); assay: GLP-1R agonist cAMP stimulation assay (HEK293/GLP1R/CRE-LUC cells, HTRF cAMP dynamic 2 kit); settings: HEK293/CRE-Luc cell line stably expressing the GLP-1 Receptor; 30 min incubation at 37° C.
EC50 by entry:

• NC(=O)c1ccc2c(c1)nc(CN1CCc3cc(C(F)(F)F)c(OCc4ccc(Cl)cc4F)nc3C1)n2C[C@@H]1CCO1 = 1 to 300 nM

The compound listed as `Cc1nnc(-c2cc3nc(CN4CCc5cc(C(F)(F)F)c(OCc6ccc(Cl)cc6)nc5C4)n(C[C@@H]4CCO4)c3cn2)[nH]1` shows EC50 equal to < 1 nM

The compound listed as `COCCn1c(CN2CCc3cc(C(F)(F)F)c(OCc4ccc(Cl)cc4F)nc3C2)nc2cc(-c3nnc(C(F)(F)F)[nH]3)ncc21` shows EC50 equal to 1 to 300 nM

The compound listed as `O=c1[nH]c(-c2cnc3c(c2)nc(CN2CCc4cc(C(F)(F)F)c(OCc5c(F)cc(Cl)cc5F)nc4C2)n3C[C@@H]2CCO2)no1` shows EC50 equal to < 1 nM

The compound listed as `N#Cc1cc2c(nc1OCc1c(F)cc(Cl)cc1F)CN(Cc1nc3cc(-c4noc(=O)[nH]4)ccc3n1C[C@@H]1CCO1)CC2` shows EC50 equal to < 1 nM

The compound listed as `CNC(=O)c1cc2nc(CN3CCc4cc(C(F)(F)F)c(OCc5ccc(Cl)cc5F)nc4C3)n(C[C@@H]3CCO3)c2cn1` shows EC50 equal to 1 to 300 nM

====

target: GLP-1 Receptor (Homo sapiens); assay: GLP-1R agonist cAMP stimulation assay (HEK293/GLP1R/CRE-LUC cells, HTRF cAMP dynamic 2 kit); details: HEK293/CRE-Luc cell line stably expressing the GLP-1 Receptor; 30 min incubation at 37° C.
parameter_measured: EC50

* CC(c1nc2cc(-c3nnc(C#N)[nH]3)ncc2n1C[C@@H]1CCO1)N1CCc2cc(C(F)(F)F)c(OCc3c(F)cc(Cl)cc3F)nc2C1 (some centres unmarked) [Compound 84] | < 1 nM
* Fc1cc(Cl)ccc1COc1nc2c(cc1C(F)(F)F)CCN(Cc1nc3cc(-c4nnc(C(F)(F)F)[nH]4)ncc3n1C[C@@H]1CCO1)C2 [Compound 4] | < 1 nM
* Fc1cc(Cl)ccc1COc1nc2c(cc1C(F)(F)F)CCN(Cc1nc3cc(-c4nnc(S)[nH]4)ccc3n1C[C@@H]1CCO1)C2 [Compound 85] | < 1 nM
* FC(F)(F)c1cc2c(nc1OCc1ccc(Cl)cc1)CN(Cc1nc3cc(-c4nnc[nH]4)ncc3n1C[C@@H]1CCO1)CC2 [Compound 64] | 1 to 300 nM
* N#CC1(Cc2cc(-c3nnc(C(F)(F)F)[nH]3)cnc2CN2CCc3cc(Cl)c(OCc4ccc(Cl)cc4F)nc3C2)CC1 [Compound 11] | > 300 nM

The compound listed as CN(C)C(=O)c1nnc(-c2cc3nc(CN4CCc5cc(C(F)(F)F)c(OCc6ccc(Cl)cc6F)nc5C4)n(C[C@@H]4CCO4)c3cn2)[nH]1 [Compound 95] shows EC50 equal to 1 to 300 nM

The compound listed as Fc1cc(Cl)ccc1COc1nc2c(cc1C(F)(F)F)CCN(Cc1nc3cc(-c4nnn[nH]4)ncc3n1C[C@@H]1CCO1)C2 [Compound 14] shows EC50 equal to < 1 nM

The compound listed as FC(F)c1ccc(COc2nc3c(cc2C(F)(F)F)CCN(Cc2nc4cc(-c5nnc(C(F)(F)F)[nH]5)ncc4n2C[C@@H]2CCO2)C3)cc1 [Compound 73] shows EC50 equal to < 1 nM

The compound listed as N#Cc1nnc(-c2cc3nc(CN4CCc5cc(Cl)c(OCc6c(F)cc(Cl)cc6F)nc5C4)n(C[C@@H]4CCO4)c3cn2)[nH]1 [Compound 9] shows EC50 equal to < 1 nM

The compound listed as Fc1cc(Cl)ccc1COc1nc2c(cc1C1CC1)CCN(Cc1nc3cc(-c4nnc(C(F)(F)F)[nH]4)cnc3n1C[C@@H]1CCO1)C2 [Compound 3] shows EC50 equal to 1 to 300 nM

The compound listed as CS(=O)(=O)NC(=O)c1ccc2c(c1)nc(CN1CCc3cc(C(F)(F)F)c(OCc4ccc(Cl)cc4F)nc3C1)n2C[C@@H]1CCO1 [Compound 93] shows EC50 equal to < 1 nM

The compound listed as Cc1cc2c(nc1OCc1c(F)cc(Cl)cc1F)CN(Cc1nc3cc(-c4nnn[nH]4)ncc3n1C[C@@H]1CCO1)CC2 [Compound 91] shows EC50 equal to < 1 nM

The compound listed as Fc1cc(Cl)ccc1CNc1nc2c(cc1C(F)(F)F)CCN(Cc1nc3cc(-c4nnc(C(F)(F)F)[nH]4)ncc3n1C[C@@H]1CCO1)C2 [Compound 109] shows EC50 equal to < 1 nM

The compound listed as O=c1[nH]c(-c2ccc3c(nc(CN4CCc5cc(C(F)(F)F)c(NCc6ccc(Cl)cc6F)nc5C4)n3C[C@@H]3CCO3)c2F)no1 [Compound 106] shows EC50 equal to < 1 nM

Origin of measurements: patent US20250206757A1
